The reported measurements were obtained from PubChem BioAssay AID1919000.

Test system: 653999-131-R-J2-PDC complex spheroids, growth % test/control;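 also: spheroids exposed to agents for seven days; 100% = DMSO vehicle control viability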
PROTOCOL: Anticancer human tumor 653999-131-R-J2-PDC patient-derived lung adenocarcinoma cell line growth inhibition [AhR]; active = viability on the fitted dose curve at most 10% of control; inactive = the rest
MEASUREMENT_PARAMETERS: second compound 0.316 µM; first compound 3.16 µM
One label from this list, please: 1 for active, 0 for inactive

Previously resolved entries follow.
COc1ccc([C@@H](O)c2cc(-c3ncnc4cc(N5CCOCC5)ccc34)c(F)cc2Cl)nn1 + Cc1ccccc1N=Nc1ccc(NC(=O)c2ccnn2C)c(C)c1; 0
CC1(C)CCC(CN2CCN(c3ccc(C(=O)NS(=O)(=O)c4ccc(NCC5CCOCC5)c([N+](=O)[O-])c4)c(Oc4cnc5[nH]ccc5c4)c3)CC2)=C(c2ccc(Cl)cc2)C1 + Cc1ccccc1N=Nc1ccc(NC(=O)c2ccnn2C)c(C)c1; 0
CC(C)c1c(-c2ccccc2)nc2c(C#N)c[nH]n2c1=O + Cc1ccccc1N=Nc1ccc(NC(=O)c2ccnn2C)c(C)c1; 0
COc1cc(Nc2ncc3c(n2)-c2ccc(Cl)cc2C(c2c(F)cccc2OC)=NC3)ccc1C(=O)O + Cc1ccccc1N=Nc1ccc(NC(=O)c2ccnn2C)c(C)c1; 0
Nc1ccccc1NC(=O)c1ccc(CNC(=O)OCc2cccnc2)cc1 + Cc1ccccc1N=Nc1ccc(NC(=O)c2ccnn2C)c(C)c1; 0

Problem: Could you check what this test reported for O=C(C=Cc1cccc(S(=O)(=O)Nc2ccccc2)c1)NO + Cc1cncc(-c2nc(NCCc3c[nH]c4ccccc34)c3ncn(C(C)C)c3n2)c1 ?
Result: 0
